Target: T1, NACC1 BEN R472A (human, UniProt Q96RE7 341-477, R472A)
T1 sequence: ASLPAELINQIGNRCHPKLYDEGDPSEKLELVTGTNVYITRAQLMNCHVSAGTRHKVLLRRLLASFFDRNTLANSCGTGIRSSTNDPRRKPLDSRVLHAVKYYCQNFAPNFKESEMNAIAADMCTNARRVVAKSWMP
Experiment: ITC; ITC: 20 mM Tris pH 7.5, 200 mM NaCl, 2 mM beta-mercaptoethanol, 20 C; EMSA: 20 mM Tris pH 7.0, 200 mM NaCl, 2 mM DTT, 4 C, 1.2% agarose in TAE
Settings: protein: recombinant; tags: His-SUMO or His-MBP, cleaved; blunt, self-complementary
pKd: −log10 of the molar value.
quantity name: pKd

12-CATG (dsDNA) DNA 1: ATTACATGTAAT DNA 2: ATTACATGTAAT	5.07
